Entries and their measured TGI follow.
Test system: KM12 colon
Test: NCI tumour cell line growth inhibition, 48 h

In [3]: df
Out[3]:
                                   compound    result
0  COc1cc2c3c(c1OC)C1(C=CC(=O)C=C1)CC3N(C(=O)OC(C)(C)C(Cl)(Cl)Cl)CC2 (centres undefined)   23.2 µM
1  NNC(=S)N/N=C(\c1nc2ccc(Cl)cc2[nH]c1=O)C(O)c1ccc(Cl)cc1Cl (centres undefined)  > 100 µM
2  CC1CN=C(c2ccc3c(c2)Cc2cc(C4=NCC(C)N4)ccc2-3)N1 (centres undefined)     56 µM

In the following, a different compound is considered.
Measured on KM12 colon, COc1ccc(-c2cc(-c3ccco3)c(C#N)c(=O)n2C2OC(OC(=O)c3ccccc3)C(OC(=O)c3ccccc3)C2OC(=O)c2ccccc2)cc1 (centres undefined) has a documented TGI of > 100 µM
